method: Dye solubility in deionised water (spectroscopic determination in filtered solution)
Assay type: physicochemical
stated.conditions: deionised water; stirred 1 hour at 50° C, cooled to 20° C, filtered
endpoint.label: Solubility (g per 100 ml)
Numeric only. Scale: g per 100 ml

Take a look at these entries with their results.
| compound | endpoint.label | recorded.result |
| --- | --- | --- |
| COc1cc(N=Nc2cc(S(=O)(=O)O)c3cccc(S(=O)(=O)O)c3c2)c(C)cc1Nc1nc(SCCCS(=O)(=O)O)nc(N(C)CCO)n1 [(120)] | Solubility | 34 |
| Nc1ccc2cc(S(=O)(=O)O)cc(O)c2c1N=Nc1ccc(Nc2nc(NCCO)nc(Nc3cccc(S(=O)(=O)O)c3)n2)cc1S(=O)(=O)O [(1)] | Solubility | 12 |

Consider now this further compound.
# Solubility of CCOc1nc(Nc2ccc(N=Nc3c(N)ccc4cc(S(=O)(=O)O)cc(O)c34)c(S(=O)(=O)O)c2)nc(SCCCS(=O)(=O)O)n1 [(113)] = 32

###

Entries annotated with measured pH change during storage
method: Hydrolysis stability (pH change of 5% aqueous dye solution on storage)
Format: physicochemical
stated.conditions: 5% by weight aqueous solution, initial pH 7.0, 60° C, 30 days
Answer with a number only.

| input.smiles | pH change during storage |
| --- | --- |
| CCOc1nc(Nc2ccc(N=Nc3c(N)ccc4cc(S(=O)(=O)O)cc(O)c34)c(S(=O)(=O)O)c2)nc(SCCCS(=O)(=O)O)n1 | -0.1 |
| Nc1ccc2cc(S(=O)(=O)O)cc(O)c2c1N=Nc1ccc(Nc2nc(SCCCS(=O)(=O)O)nc(N(CCO)CCO)n2)cc1S(=O)(=O)O | -0.1 |
| COc1cc(N=Nc2cc(S(=O)(=O)O)c3cccc(S(=O)(=O)O)c3c2)c(C)cc1Nc1nc(SCCCS(=O)(=O)O)nc(SCCCS(=O)(=O)O)n1 | -0.5 |
| COc1cc(N=Nc2cc(S(=O)(=O)O)c3cccc(S(=O)(=O)O)c3c2)c(C)cc1Nc1nc(SCCCS(=O)(=O)O)nc(N(C)CCO)n1 | 0 |

# pH change during storage of Nc1ccc2cc(S(=O)(=O)O)cc(O)c2c1N=Nc1ccc(Nc2nc(NCCO)nc(Nc3cccc(S(=O)(=O)O)c3)n2)cc1S(=O)(=O)O = -0.2

# pH change during storage of CCOc1nc(Nc2cc(C)c(N=Nc3cc(S(=O)(=O)O)c4cccc(S(=O)(=O)O)c4c3)cc2OC)nc(SCCCS(=O)(=O)O)n1 = 0
